# Organism: Oryctolagus cuniculus
# method.summary: Effect on ADP-induced platelet aggregation in rabbit platelet-rich plasma at 1 uM
# Format: functional
Numbered stars: 1 amine (or outer) side, 2 acyl side, 3 side chain; on linkers, the order of the positions; unused ones are H or OH. Square brackets hold non-standard residues; d marks the D form. Peptide text beside a SMILES is read from it. X1 = COc1cc(C2c3[nH]c4ccccc4c3CC(C(=O)[*:2])N2[*:1])cc(OC)c1O
Reported Activity values for the following molecules.

[[record]]
molecule = "COc1cc(C2NC(C(=O)N[C@@H](CCCN=C(N)N)C(=O)NCC(=O)N[C@@H](CC(=O)O)C(=O)N[C@@H](Cc3ccccc3)C(=O)O)Cc3c2[nH]c2ccccc32)cc(OC)c1O (stereo partly drawn) (H-[X1]RGDF-OH)"
test_result = "29.43%"

[[record]]
molecule = "N=C(N)NCCC[C@H](N)C(=O)NCC(=O)N[C@@H](CC(=O)O)C(=O)N[C@@H](Cc1ccccc1)C(=O)O (H-RGDF-OH)"
test_result = "22.71%"


Incoming: So what does the record say about Activity for COc1cc(C2NC(C(=O)N[C@@H](CCCN=C(N)N)C(=O)NCC(=O)N[C@@H](CC(=O)O)C(=O)N[C@H](C(=O)O)C(C)C)Cc3c2[nH]c2ccccc32)cc(OC)c1O (stereo partly drawn) (H-[X1]RGDV-OH) ?
Outgoing: 29.6%
